target: Tsu-ACR-16-like (Trichuris suis, UniProt A0A890W0I7); construct: ACR-16-like subunit (GenBank MT386096), homomeric receptor in Xenopus laevis oocytes; assay: two-electrode voltage-clamp in Xenopus oocytes co-injected with Xla-ric-3
Sequence (A0A890W0I7 22-461): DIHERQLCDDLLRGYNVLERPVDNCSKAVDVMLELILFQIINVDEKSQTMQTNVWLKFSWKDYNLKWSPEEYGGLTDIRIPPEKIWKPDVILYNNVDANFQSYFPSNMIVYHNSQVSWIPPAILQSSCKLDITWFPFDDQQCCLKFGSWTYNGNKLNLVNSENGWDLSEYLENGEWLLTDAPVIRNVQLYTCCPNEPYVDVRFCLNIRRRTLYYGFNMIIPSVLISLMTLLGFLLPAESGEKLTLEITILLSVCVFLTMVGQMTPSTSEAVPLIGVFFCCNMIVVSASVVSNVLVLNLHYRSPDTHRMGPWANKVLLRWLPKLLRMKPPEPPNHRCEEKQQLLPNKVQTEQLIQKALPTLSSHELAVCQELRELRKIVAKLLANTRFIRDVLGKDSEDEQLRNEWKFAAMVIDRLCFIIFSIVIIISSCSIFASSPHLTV
pEC50: −log10 of the molar value.

Molecule	pEC50
Clc1ccc(C2CC3CCC2N3)cn1 (stereo not shown) [epibatidine]	5.72

###

molecular target: Tmu-ACR-16-like (Trichuris muris); construct: full-length subunit (464 amino acids; GenBank MZ322663), homomeric receptor in Xenopus laevis oocytes; assay: two-electrode voltage-clamp in Xenopus oocytes co-injected with Xla-ric-3; assay type: cell-based
Sequence (A0A5S6R3I6 entry or part of it): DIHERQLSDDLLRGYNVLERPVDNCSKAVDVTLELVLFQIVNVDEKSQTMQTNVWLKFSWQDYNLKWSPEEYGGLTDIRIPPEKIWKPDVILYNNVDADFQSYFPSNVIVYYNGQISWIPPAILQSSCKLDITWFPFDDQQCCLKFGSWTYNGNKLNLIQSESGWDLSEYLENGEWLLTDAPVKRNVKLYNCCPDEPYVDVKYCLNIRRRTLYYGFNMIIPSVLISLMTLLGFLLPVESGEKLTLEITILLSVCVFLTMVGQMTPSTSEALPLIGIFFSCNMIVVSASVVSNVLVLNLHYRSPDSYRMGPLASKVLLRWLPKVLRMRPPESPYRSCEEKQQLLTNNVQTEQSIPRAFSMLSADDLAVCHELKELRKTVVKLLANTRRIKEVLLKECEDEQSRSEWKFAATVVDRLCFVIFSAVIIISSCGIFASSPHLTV
pEC50: −log10 of the molar value.
Measured parameter: pEC50

Compound	Measured parameter	Measured
Clc1ccc(C2CC3CCC2N3)cn1 (stereo not shown) [epibatidine]	pEC50	5.77
